Entries and their measured IC50 follow.
biological target: E. coli RNA polymerase (Escherichia coli, UniProt P0A8T7+P0A8V2); construct: purchased Epicentre Technology; Madison Wis; experiment: Inhibition of RNA polymerase, cell free transcription assay (3H-UTP incorporation); format: biochemical; conditions: IC50 of E. coli RNA polymerase, 37° C., 15 minutes
Sequence (P0A8V2 whole entry): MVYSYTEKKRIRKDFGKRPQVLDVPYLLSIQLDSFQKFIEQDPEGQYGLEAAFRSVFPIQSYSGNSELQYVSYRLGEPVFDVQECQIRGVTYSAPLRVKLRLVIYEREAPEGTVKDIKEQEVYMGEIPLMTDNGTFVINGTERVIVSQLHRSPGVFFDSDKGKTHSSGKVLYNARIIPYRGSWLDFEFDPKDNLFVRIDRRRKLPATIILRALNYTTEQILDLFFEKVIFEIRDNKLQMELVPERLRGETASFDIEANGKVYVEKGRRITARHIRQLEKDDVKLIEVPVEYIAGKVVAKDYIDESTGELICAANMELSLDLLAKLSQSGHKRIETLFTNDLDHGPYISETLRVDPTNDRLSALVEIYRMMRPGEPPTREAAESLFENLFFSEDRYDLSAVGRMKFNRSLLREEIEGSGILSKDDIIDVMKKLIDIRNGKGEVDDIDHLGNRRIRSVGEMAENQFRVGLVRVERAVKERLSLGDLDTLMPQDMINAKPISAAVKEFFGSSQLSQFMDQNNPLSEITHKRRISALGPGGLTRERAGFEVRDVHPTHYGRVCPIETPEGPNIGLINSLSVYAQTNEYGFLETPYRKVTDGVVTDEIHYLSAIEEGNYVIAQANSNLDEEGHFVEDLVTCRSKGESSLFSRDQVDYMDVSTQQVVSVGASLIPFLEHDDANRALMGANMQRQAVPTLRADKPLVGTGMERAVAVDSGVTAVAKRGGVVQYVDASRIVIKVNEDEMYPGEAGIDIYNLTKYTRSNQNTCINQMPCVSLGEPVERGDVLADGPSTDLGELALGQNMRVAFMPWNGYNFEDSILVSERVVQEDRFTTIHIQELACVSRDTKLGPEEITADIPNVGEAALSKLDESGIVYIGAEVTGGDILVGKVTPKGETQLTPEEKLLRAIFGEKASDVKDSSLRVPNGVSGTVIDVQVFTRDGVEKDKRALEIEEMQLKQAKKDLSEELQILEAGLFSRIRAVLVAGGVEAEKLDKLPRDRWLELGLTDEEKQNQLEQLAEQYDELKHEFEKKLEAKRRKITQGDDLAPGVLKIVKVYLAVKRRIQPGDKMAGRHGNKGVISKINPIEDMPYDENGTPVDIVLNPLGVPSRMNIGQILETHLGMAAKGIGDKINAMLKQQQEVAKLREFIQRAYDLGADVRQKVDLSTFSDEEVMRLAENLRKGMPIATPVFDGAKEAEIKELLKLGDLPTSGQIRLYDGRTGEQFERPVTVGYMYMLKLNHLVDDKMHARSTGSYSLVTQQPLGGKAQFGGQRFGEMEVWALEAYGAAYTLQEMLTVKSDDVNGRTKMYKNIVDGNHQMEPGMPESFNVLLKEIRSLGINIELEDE
Sequence (P0A8T7 whole entry): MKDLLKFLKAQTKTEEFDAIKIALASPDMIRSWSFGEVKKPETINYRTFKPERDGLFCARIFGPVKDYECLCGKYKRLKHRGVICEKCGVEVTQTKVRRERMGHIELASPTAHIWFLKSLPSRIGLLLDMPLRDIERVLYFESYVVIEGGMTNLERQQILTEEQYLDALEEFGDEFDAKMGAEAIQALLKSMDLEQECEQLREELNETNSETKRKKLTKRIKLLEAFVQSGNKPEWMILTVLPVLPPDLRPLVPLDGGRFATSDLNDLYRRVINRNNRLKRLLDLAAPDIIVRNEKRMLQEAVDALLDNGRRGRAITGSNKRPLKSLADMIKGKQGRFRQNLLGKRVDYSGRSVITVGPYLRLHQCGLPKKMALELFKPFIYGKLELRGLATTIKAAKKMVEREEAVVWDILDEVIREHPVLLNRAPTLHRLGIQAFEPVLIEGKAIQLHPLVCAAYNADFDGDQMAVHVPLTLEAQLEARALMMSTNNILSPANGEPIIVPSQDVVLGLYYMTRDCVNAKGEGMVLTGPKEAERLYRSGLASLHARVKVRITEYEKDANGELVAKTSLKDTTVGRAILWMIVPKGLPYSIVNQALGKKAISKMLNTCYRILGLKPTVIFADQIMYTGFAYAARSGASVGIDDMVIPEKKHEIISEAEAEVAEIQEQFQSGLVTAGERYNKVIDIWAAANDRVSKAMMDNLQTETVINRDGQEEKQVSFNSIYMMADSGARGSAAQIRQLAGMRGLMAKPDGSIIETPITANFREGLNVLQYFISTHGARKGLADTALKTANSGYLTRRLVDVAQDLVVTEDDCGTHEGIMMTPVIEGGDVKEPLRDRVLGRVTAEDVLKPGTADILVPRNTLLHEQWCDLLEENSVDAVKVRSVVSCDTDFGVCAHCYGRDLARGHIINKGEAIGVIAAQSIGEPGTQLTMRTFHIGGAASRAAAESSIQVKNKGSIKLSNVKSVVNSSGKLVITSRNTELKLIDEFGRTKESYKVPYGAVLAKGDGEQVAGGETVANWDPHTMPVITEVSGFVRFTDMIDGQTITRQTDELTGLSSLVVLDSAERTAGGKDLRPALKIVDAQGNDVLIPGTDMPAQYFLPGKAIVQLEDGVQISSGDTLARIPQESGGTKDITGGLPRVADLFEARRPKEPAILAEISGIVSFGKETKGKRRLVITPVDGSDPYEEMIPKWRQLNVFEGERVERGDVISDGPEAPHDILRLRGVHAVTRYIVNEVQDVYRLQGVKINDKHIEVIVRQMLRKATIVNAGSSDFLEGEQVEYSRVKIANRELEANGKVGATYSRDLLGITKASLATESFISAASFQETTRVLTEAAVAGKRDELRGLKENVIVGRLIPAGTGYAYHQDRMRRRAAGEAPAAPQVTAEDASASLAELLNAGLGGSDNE
Sequence (P0A7Z4 whole entry partner): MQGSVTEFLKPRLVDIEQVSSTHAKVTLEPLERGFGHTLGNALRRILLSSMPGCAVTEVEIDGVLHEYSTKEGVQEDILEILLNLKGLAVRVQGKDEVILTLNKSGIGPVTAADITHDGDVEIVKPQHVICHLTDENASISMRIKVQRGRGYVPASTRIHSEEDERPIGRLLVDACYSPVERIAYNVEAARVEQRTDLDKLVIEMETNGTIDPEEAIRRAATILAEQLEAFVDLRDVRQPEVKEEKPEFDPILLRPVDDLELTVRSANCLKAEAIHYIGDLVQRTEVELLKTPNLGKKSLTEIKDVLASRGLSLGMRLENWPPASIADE
Sequence (P0A800 whole entry partner): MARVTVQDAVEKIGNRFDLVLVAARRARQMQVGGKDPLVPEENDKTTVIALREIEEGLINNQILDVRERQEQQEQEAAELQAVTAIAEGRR
Answer in nM, number only, no unit symbol.

Record excerpt, results attached:
Per the record, CC=C(C)C(=O)NCC1NC(=O)C(C(=O)O)NC(=O)C(O)CNC(=O)C(C(C)O)NC(=O)C(C(O)C(O)C(N)=O)NC(=O)C(C(C)C)NC(=O)C(CO)NC1=O (single isomer, unassigned) [Factor A1] has IC50 of 187

Per the record, CC=C(C)C(=O)NCC1NC(=O)C(C(=O)O)NC(=O)C(O)CNC(=O)C(C(C)O)NC(=O)C(C(O)C(O)C(N)=O)NC(=O)C(C(C)C)NC(=O)C(CO)NC1=O (single isomer, unassigned) [Factor A2] has IC50 of 43.5

Further cases:
Per the record, CC(C)CC(=O)NCC1NC(=O)C(C(=O)O)NC(=O)C(O)CNC(=O)C(C(C)O)NC(=O)C(C(O)C(O)C(N)=O)NC(=O)C(C(C)C)NC(=O)C(CO)NC1=O (single isomer, unassigned) has IC50 of 124

// data source = patent US6586393B2
